Each recorded value in this set is attributed to the supplement of paper PMC9170038.

Can you tell me apparent KD of MS2 coat protein for the items I'm about to list?
System: MS2 coat protein
Assay: apparent KD of MS2 coat protein; designed switch direction (-1 OFF switch, 1 ON switch): -1; higher = weaker reporter binding
Settings: input ligand: FMN 200 uM
Answers are plain numbers, in µM.

Below: 5 sequences and their reported apparent KD of MS2 coat protein.
Exercise: For the sequence UACCUAUAGGUAGGAUAUCAUUGCGAUUAGCUAUGAGAAGGACCACAUGAGGAUCACCCAUGUCCUCCAAUUAACCGAAAGGUA [Fiskers ExNg1 - 2] (Eterna round: R96, puzzle: Exclusion NG 1) , give its measured apparent KD of MS2 coat protein value.
Key: 0.0773

Exercise: For the sequence ACAUGAGGAUCACCCAUGUAAACAUAAUGGCUCAUGUAGAGUCAGGAUAUGCGUGGCGAACAAUCGCAGAAGGGACAAGACUGG [Deportation 28 - Jieux - Exclusion NG 3] (Eterna round: R96, puzzle: Exclusion NG 3) , give its measured apparent KD of MS2 coat protein value.
Key: 0.0292

Exercise: For the sequence GCUGGUCGAGGAUAUACAUUCGUGCUUCGGCACGUAAGGUCACAUGAGGAUCACCCAUGUAGAAGGCGACCAGC [E2/7-A1] (Eterna round: R97, puzzle: Exclusion 2) , give its measured apparent KD of MS2 coat protein value.
Key: 0.258

Exercise: For the sequence AAUAAGCUAGGAUAUACAUGAGGAUCACCCAUGUAUGACGAUACAGAAUCUGGCCCGAGUAGAAGGAGCAAACU [EX3 B.7] (Eterna round: R97, puzzle: Exclusion 3) , give its measured apparent KD of MS2 coat protein value.
Key: 0.0232

Exercise: For the sequence GGAAUGAGAGAGGAUAUGGGAGGGAGGACCGGACCAGAAGGCUCGACAUGAGGAUCACCCAUGUAGAGAUCCUC [AK-MS2ROC-r4-exclusion6-6.10] (Eterna round: R97, puzzle: Exclusion 6) , give its measured apparent KD of MS2 coat protein value.
Key: 0.26

Consider the following items and state reported apparent KD of MS2 coat protein for each.
1. AUACAGGAAGGAUAUACAUGAGGAUCACCCAUGUAGGAAAACCUACCAAAAGACCCAAGUAGAAGGUCCGAUAC [jl-ex3-4.74 ViennaUCT mod] (Eterna round: R97, puzzle: Exclusion 3)
2. UACAUGAGGAUCACCCAUGUUUUGUCGUGUAUGGUAUUUAUCUAGGAUAUCAAUCUAUUUAAUUAUGAGAAGGAGAAUAUUAAU [JMF's solution 53] (Eterna round: R96, puzzle: Exclusion NG 3)
3. CUCCUCGCUUAGGAUAUGUACACUUGCACCGUGACAGAAGGAAGCACUUGAGGAUCACCCAAGUGCCAGGGUGC [Geena] (Eterna round: R97, puzzle: Exclusion 6)

Key:
0.0218
0.0372
0.0144

Exercise: For the sequence CACCUGAACUCAGGAUAUCAUACAUGAGGAUCACCCAUGUAAUAAAUGAGAAUUUCGAAUGUAAUUGAGAAGGGAGAAUAAGGC [Ostricism 98 - Jieux - Exclusion NG 2] (Eterna round: R96, puzzle: Exclusion NG 2) , give its measured apparent KD of MS2 coat protein value.
Key: 0.0888

* * *

Test system: MS2 coat protein
Experiment: apparent KD of MS2 coat protein; designed switch direction (-1 OFF switch, 1 ON switch): 1; higher = weaker reporter binding
Settings: input ligand: FMN 200 uM
Can you tell me apparent KD of MS2 coat protein for the items I'm about to list?
Numbers only, in nM.

Exercise: For the sequence AGAUCAUGACGAGGAUAUCCGACAUGAGGAUCACCCAUGUAUGUCGGAGGACGCGUACGUCCAAUGGAGAAGGCGUCGUGGUCA [JL SSNG2 1.03] (Eterna round: R96, puzzle: Same State NG 2) , give its measured apparent KD of MS2 coat protein value.
Key: 18.2

Exercise: For the sequence GCCGCGUUUCGCGCCUACAUGAGGAUCACCCAUGUUUGUAGGCAGGAUAUCGUUUGCUUUGCAAUCGAGAAGGGCUGUUGUGGC [salish99_SSNG3_R04_014] (Eterna round: R96, puzzle: Same State NG 3) , give its measured apparent KD of MS2 coat protein value.
Key: 33

Exercise: For the sequence AAUUAAGAUCAAGGAUAUCACGUCGUUUAGACGUGAGAAGGUGAUCAUAACAUGAGGAUCACCCAUGUAUUACAUGAAUUAAUU [SSNG1/2-B3] (Eterna round: R96, puzzle: Same State NG 1) , give its measured apparent KD of MS2 coat protein value.
Key: 72.4

Exercise: For the sequence UGGCUCAGACGAGGAUAUACGUGGUCACAUGAGGAUCACCCAUGUCUCGAGCUUCGGCUCGAGGCGUAGAAGGUGUCUGAGCCA [SSNG2/6-C2] (Eterna round: R96, puzzle: Same State NG 2) , give its measured apparent KD of MS2 coat protein value.
Key: 192

Exercise: For the sequence AACAGUCGGCGAGGAUAUGGACGUACGGACUAACCCGUGCAGCUCACAUGAGGAUCACCCAUGUUCUAGAAGGCGCCACUGAAA [Onesusatza] (Eterna round: R96, puzzle: Same State NG 2) , give its measured apparent KD of MS2 coat protein value.
Key: 15.9

Consider the following items and state reported apparent KD of MS2 coat protein for each.
1. GCUCGAUGAGCUGUCUACAUGAGGAUCACCCAUGUAGAUGGGCAGGAUAUUUACGUGCUUUGUGUAGAGAAGGGCCCAUCGAGC [SameState NG3 #77] (Eterna round: R96, puzzle: Same State NG 3)
2. GGCGGCCUGGGAGGAUAUCGGGCCCUUUGGGCCCGAGAAGGUCCGGAGCCUCUGACAUGAGGAUCACCCAUGUAGGCUGCUGCC [first try] (Eterna round: R96, puzzle: Same State NG 1)
3. AGAGGAGGCGCAGGAUAUACGACGGAGGACGUGGUAGAAGGGUGCAUGCGAUAACAUGAGGAUCACCCAUGUACCGCGCGACGA [AK SSNG1-V2-17] (Eterna round: R96, puzzle: Same State NG 1)
4. GUAGCAUACCGAGGAUAUUCAUAUUAACAUGAGGAUCACCCAUGUAUUUAGGCCAAAAGGCCUUGGGAGAAGGCGGAAUGCUAC [Xeonanis - 20 Mod7] (Eterna round: R96, puzzle: Same State NG 2)

Key:
1: 35; 2: 45.4; 3: 210; 4: 17.5
